# System: HT29 RAMS11 overexpressing cells
# assay method text: High-throughput viability assay (resazurin), 119 FDA-approved anticancer drugs, RAMS11 overexpressing cells (Clone1, Clone2)
# test context: OE1 (RAMS11 overexpression clone 1), 0.1 uM drug, 72 h, vs empty vector control
Where a name gives a salt, the structure may show the parent alone.
Label scheme, based on Viability Fold Change: range 1 (below 0.9), range 2 (0.9 to below 1), range 3 (1 or more)

NCCCNCCSP(=O)(O)O :: range 2

Task item: Each compound maps to one class by Viability Fold Change. Which class for COc1cccc2c1C(=O)c1c(O)c3c(c(O)c1C2=O)C[C@@](O)(C(=O)CO)C[C@@H]3O[C@H]1C[C@H](N)[C@H](O)[C@H](C)O1 [doxorubicin HCl, reference compound] ?
Reply: range 3

Task item: Each compound maps to one class by Viability Fold Change. Which class for COc1cc([C@@H]2c3cc4c(cc3[C@@H](O[C@@H]3O[C@@H]5CO[C@@H](c6cccs6)O[C@H]5[C@H](O)[C@H]3O)[C@H]3COC(=O)[C@H]23)OCO4)cc(OC)c1O [Teniopside] ?
Reply: range 3

Task item: Each compound maps to one class by Viability Fold Change. Which class for Oc1ncnc2[nH]ncc12 ?
Reply: range 1

Task item: Each compound maps to one class by Viability Fold Change. Which class for O=C(c1ccc(OCCN2CCCCC2)cc1)c1c(-c2ccc(O)cc2)sc2cc(O)ccc12 ?
Reply: range 2

Task item: Each compound maps to one class by Viability Fold Change. Which class for CCCS(=O)(=O)Nc1ccc(F)c(C(=O)c2c[nH]c3ncc(-c4ccc(Cl)cc4)cc23)c1F ?
Reply: range 1

Task item: Each compound maps to one class by Viability Fold Change. Which class for CC(=O)[C@]1(O)Cc2c(O)c3c(c(O)c2[C@@H](O[C@H]2C[C@H](N)[C@H](O)[C@H](C)O2)C1)C(=O)c1ccccc1C3=O [Idarubicin hydrochloride] ?
Reply: range 3

Task item: Each compound maps to one class by Viability Fold Change. Which class for C/C=C1\NC(=O)[C@H]2CSSCC/C=C/[C@H](CC(=O)N[C@H](C(C)C)C(=O)N2)OC(=O)[C@H](C(C)C)NC1=O ?
Reply: range 3

Values were extracted from patent US12024707B2.
